biological target: L3 (DV1-GV8), soluble leucine zipper γδ TCR heterodimer of a delta variable 1 chain and a gamma variable 8 … (human); test: DELFIA ELISA, coated antigen;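 further: binding of antibody supernatants or protein-A purified antibodies to plate-coated antigen (3 µg/ml recombinant TCR or BSA), 1 h incubation at room temperature, DELFIA readout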
Sequence (chain, as listed by the source mutant, chain 1 of 2): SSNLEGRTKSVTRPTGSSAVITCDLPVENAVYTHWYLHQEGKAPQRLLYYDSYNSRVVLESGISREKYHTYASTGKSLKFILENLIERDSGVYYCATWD
Sequence (chain, as listed by the source mutant, chain 2 of 2): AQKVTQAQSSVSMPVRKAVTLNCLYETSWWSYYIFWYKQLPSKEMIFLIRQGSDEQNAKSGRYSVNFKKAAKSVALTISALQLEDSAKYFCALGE
READOUT NAME: DELFIA ELISA response (FU)

| BINDER | TEST RESULT |
| --- | --- |
| G4_22 (antibody, human IgG1, V domains shown, also called clone G4_22) VH: QVQLVESGGGLVQPGGSLRLSCAASGFTFSTYAMSWVRQAPGKGLEWVSTVSGSGGTTYYADSVKGRFTISRDNSKNTLYLQMNSLRAEDTAVYYCAKDSTAVTDWFDPWGRGTLVTVSS VL: DIQMTQSPSSLSASVGDRVTITCQASQDISNYLNWYQQKPGKAPKLLIYAASSLQSGVPSRFSVSGSGTDFTLTISNLQPEDFATYYCQQSYSIPWTFGQGTKVEIKR | 980 FU |
| G4_27 (antibody, human IgG1, V domains shown, also called 1248_P02_C10; clone G4_27) VH: QVQLVQSGAEVKKPGESLKISCKSSGYSFTSYWIGWVRQMPGKGLEWMGIIYPGDSDTRYSPSFQGQVTFSADESISTAYLQWSSLKASDTAMYYCARHGAYGDYPDTFDIWGQGTLVTVSS VL: SSYELTQDPAVSVALGQTVSITCQGDSLRNFYANWYQQKPGQAPVLVIYGKNNRPSGIPDRFSGSSSGNTASLTITGAQAEDEADYYCNSRDSSGNHLVFGGGTQLTVLG | 1690 FU |
| G4_1 (antibody, human IgG1, V domains shown, also called clone G4_1) VH: EVQLLESGGGVVQPGRPLRLSCAASGFTFSSYSMNWVRQAPGKGLEWVSSISSSSSYIYYADSVKGRFTISRDNSKNTLYLQMNSLRAEDTAVYYCAKGHWYFDLWGRGTLVTVSS VL: DIQMTQSPSSLSASVGDRVTITCQASQDISNYLNWYQQKPGKAPKLLIYDASNLETGVPSRFSGSGSGTDFTLTISSLQPEDFATYYCQQSYSTPVTFGPGTKVEIKR | 244 FU |

Exercise: What measured DELFIA ELISA response (FU) goes with G4_25 (antibody, human IgG1, V domains shown, also called clone G4_25) VH: EVQLVESGAEVKKPGSSVKVSCKASGGTFSSYAISWVRQAPGQGLEWMGGIIPIFGTANYAQKFQGRVTITADKSTSTAYMELSSLRSEDTAVYYCARSLRDGYNYIGSLGYWGQGTLVTVSS VL: SQSALTQPRSVSGSPGQSVTISCTGTSSDVGGYNYVSWYQQHPGKAPKLMIYEVSNRPSGVSNRFSGSKSGNTASLTISGLQAEDEADYYCSSYGSGSVFGTGTKLTVLG ?
Key: 885 FU
